tested-system: UniProt P25963
test-details: Inhibition of IL1alpha-induced IkappaBalpha phosphorylation in human A549 cells at 100 uM incubated for 1 hr prior IL1alpha challenge measured after 15 mins by Western blot analysis in the presence of proteasome inhibitor MG-132
Type: cell-based
Calls of active or inactive are those of the source. The rule behind the calls is not given here.
reported-endpoint: inhibition

[
  {
    "structure-string": "C=C1C(=O)O[C@@H]2[C@H]3[C@H](C)C(=O)[C@H](Br)C[C@]3(C)CC[C@@H]12",
    "tested-system": "UniProt P25963",
    "reported-endpoint": "inhibition",
    "test-result": "Active"
  },
  {
    "structure-string": "C=C1C(=O)O[C@@H]2[C@H]3[C@H](C)C(=O)CC[C@]3(C)CC[C@@H]12",
    "tested-system": "UniProt P25963",
    "reported-endpoint": "inhibition",
    "test-result": "Active"
  },
  {
    "structure-string": "C=C1C(=O)O[C@@H]2[C@H]3[C@H](C)C(=O)C=C[C@]3(C)CC[C@@H]12",
    "tested-system": "UniProt P25963",
    "reported-endpoint": "inhibition",
    "test-result": "Active"
  }
]

---

# Lookup of reported IC50 keyed by entry
Tested on: A549
test-details: Cytotoxicity against human A549 cells after 24 hrs by MTT assay
Assay type: cell-based
assay-conditions: a549, 24 h

[
  {
    "structure-string": "C[C@H]1[C@@H]2[C@H]3OC(=O)[C@@H](C)[C@@H]3CC[C@@]2(C)C=C[C@@H]1O",
    "modifier": ">",
    "IC50 [µM]": 320
  },
  {
    "structure-string": "C[C@@H]1C(=O)O[C@H]2[C@H]1CC[C@@]1(C)CCC(=O)[C@@H](C)[C@H]21",
    "modifier": ">",
    "IC50 [µM]": 320
  },
  {
    "structure-string": "C[C@@H]1C(=O)O[C@H]2[C@H]1CC[C@@]1(C)C=CC(=O)[C@@H](C)[C@H]21",
    "modifier": ">",
    "IC50 [µM]": 320
  },
  {
    "structure-string": "C=C1C(=O)O[C@@H]2[C@H]3[C@H](C)C(=O)CC[C@]3(C)CC[C@@H]12",
    "modifier": "=",
    "IC50 [µM]": 110
  },
  {
    "structure-string": "C=C1C(=O)O[C@@H]2[C@H]3[C@H](C)C(=O)C=C[C@]3(C)CC[C@@H]12",
    "modifier": "=",
    "IC50 [µM]": 120
  },
  {
    "structure-string": "C=C1C(=O)O[C@@H]2[C@H]3[C@H](C)C(=O)[C@H](Br)C[C@]3(C)CC[C@@H]12",
    "modifier": "=",
    "IC50 [µM]": 88
  },
  {
    "structure-string": "C=C1C(=O)O[C@@H]2[C@H]3[C@H](C)[C@@H](O)C=C[C@]3(C)CC[C@@H]12",
    "modifier": "=",
    "IC50 [µM]": 140
  },
  {
    "structure-string": "C[C@@H]1C(=O)O[C@H]2[C@H]1CC[C@@]1(C)C[C@@H](Br)C(=O)[C@@H](C)[C@H]21",
    "modifier": ">",
    "IC50 [µM]": 320
  }
]

---

tested-system: NF-kappa-B inhibitor alpha (Homo sapiens)
Sequence (whole entry): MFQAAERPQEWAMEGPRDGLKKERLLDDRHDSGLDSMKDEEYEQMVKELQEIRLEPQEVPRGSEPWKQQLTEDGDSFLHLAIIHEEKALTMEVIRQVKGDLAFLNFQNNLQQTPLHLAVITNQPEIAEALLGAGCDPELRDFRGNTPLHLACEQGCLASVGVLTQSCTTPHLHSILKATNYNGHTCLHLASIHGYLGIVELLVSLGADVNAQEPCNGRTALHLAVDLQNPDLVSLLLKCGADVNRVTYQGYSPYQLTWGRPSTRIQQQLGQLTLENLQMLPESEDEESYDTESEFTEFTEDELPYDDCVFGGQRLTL
test-details: Inhibition of TNF-alpha-induced IkappaBalpha phosphorylation in human A549 cells at 100 uM incubated for 1 hr prior TNFalpha challenge measured after 15 mins by Western blot analysis in the presence of proteasome inhibitor MG-132
Assay type: cell-based
Calls of active or inactive are those of the source. The calls are words filed in the database; no cut-off is given here.
Classes used: active, inactive

[
  {
    "structure-string": "C=C1C(=O)O[C@@H]2[C@H]3[C@H](C)C(=O)CC[C@]3(C)CC[C@@H]12",
    "tested-system": "NF-kappa-B inhibitor alpha (Homo sapiens)",
    "group-label": "active"
  },
  {
    "structure-string": "C=C1C(=O)O[C@@H]2[C@H]3[C@H](C)C(=O)C=C[C@]3(C)CC[C@@H]12",
    "tested-system": "NF-kappa-B inhibitor alpha (Homo sapiens)",
    "group-label": "active"
  },
  {
    "structure-string": "C=C1C(=O)O[C@@H]2[C@H]3[C@H](C)[C@@H](O)C=C[C@]3(C)CC[C@@H]12",
    "tested-system": "NF-kappa-B inhibitor alpha (Homo sapiens)",
    "group-label": "inactive"
  },
  {
    "structure-string": "C=C1C(=O)O[C@@H]2[C@H]3[C@H](C)C(=O)[C@H](Br)C[C@]3(C)CC[C@@H]12",
    "tested-system": "NF-kappa-B inhibitor alpha (Homo sapiens)",
    "group-label": "active"
  }
]
